# Tested on: platelet rich plasma (PRP), thrombin-induced platelet aggregation
# experiment summary: Inhibitory effects on platelet aggregation using platelet rich plasma (thrombin-induced)
# Type: cell-based
# applied conditions: Homo sapiens, 0.1 h, thrombin 0.5-1.5 units/ml, area under aggregation curve over 6 minutes, read-out: Thr IC50
Counter-ions that a name gives are not always drawn.
property measured: IC50 (nM)
Number only, in nM; omit the unit.

Per the records, this compound ( CCCC1CN(CC(=O)c2cc(N(C)S(C)(=O)=O)c(O)c(C(C)(C)C)c2)C(=N)[C@@H]1c1ccccc1 (stereo in doubt) [Example 3, hydrobromide] ) has IC50 equal to 2300

====

# Tested on: Vascular smooth muscle cells (rSMC)
# experiment summary: Rat smooth muscle cell proliferation assay (thrombin-stimulated, MTT)
# Assay type: cell-based
# applied conditions: 48 h, thrombin 0.1 unit/ml, 2 days, MTT OD 590 nm, read-out: Rat SMC IC50
Counter-ions that a name gives are not always drawn.
property measured: pIC50
Field pIC50 (float): negative decimal logarithm of the concentration in molar.

Per the records, this compound ( CCCC1CN(CC(=O)c2cc(N(C)S(C)(=O)=O)c(O)c(C(C)(C)C)c2)C(=N)[C@@H]1c1ccccc1 (stereo in doubt) [Example 3, hydrobromide] ) has pIC50 equal to 5.60
